target: human FXR (Homo sapiens); test: transient human FXR/Gal4-luciferase reporter assay (HLE GAL-FXR); conditions: FXR EC50 (nM), Gal4-hFXR fusion reporter, HEK293 cells; Table 1
observation_type: EC50 (nM)

(A) CC(C)Oc1cc(C(=O)O)nc2ccc(N3CCC(/C=C/c4c(-c5ccncc5C(F)(F)F)noc4C4CC4)CC3)cc12 [Example 110]
(B) O=C(O)c1cc(-c2nc(N3CC4C(/C=C/c5c(-c6c(Cl)cncc6Cl)noc5C5CC5)C4C3)no2)cc(C(F)(F)F)c1 (stereo not drawn) [Example 123]
Query: Of the two listed items, A and B , which carries the larger EC50 figure? Field: selected label. Fill in the label of the entry you choose.
Reply: B

###

molecular target: human FXR (Homo sapiens, UniProt Q96RI1); assay: transient human FXR/Gal4-luciferase reporter assay (HLE GAL-FXR); conditions: FXR EC50 (nM), Gal4-hFXR fusion reporter, HEK293 cells; Table 1
Sequence (Q96RI1 262-486 limits assumed): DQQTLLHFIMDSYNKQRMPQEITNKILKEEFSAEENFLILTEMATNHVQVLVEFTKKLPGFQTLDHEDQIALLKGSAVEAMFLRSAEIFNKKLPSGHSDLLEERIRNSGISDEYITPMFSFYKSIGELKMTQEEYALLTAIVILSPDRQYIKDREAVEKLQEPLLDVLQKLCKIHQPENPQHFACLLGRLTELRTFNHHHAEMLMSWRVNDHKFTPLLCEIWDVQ
observation_type: EC50 (nM)

{"molecule": "CCOc1cc(C(=O)O)nc2ccc(N3CC4C(/C=C/c5c(-c6cccnc6C(F)(F)F)noc5C5CC5)C4C3)cc12 (stereo not shown)", "EC50 / nM": 43}
{"molecule": "O=C(O)c1cc(OC2CCC2)c2cc(N3CC4C(/C=C/c5c(-c6ccccc6C(F)(F)F)noc5C5CC5)C4C3)ccc2n1 (stereo not shown)", "EC50 / nM": 50}
{"molecule": "O=C(O)c1ccc2oc(N3CCC(/C=C/c4c(-c5c(Cl)cccc5Cl)noc4C4CC4)CC3)nc2c1", "EC50 / nM": 156}
{"molecule": "O=C(O)c1ccc2nc(N3CCC(/C=C/c4c(-c5ccccc5C(F)(F)F)noc4C4CC4)CC3)sc2n1", "EC50 / nM": 26}
{"molecule": "COc1cc(C(=O)O)nc2sc(N3CC4C(/C=C/c5c(-c6c(Cl)cncc6Cl)noc5C5CC5)C4C3)nc12 (stereo not shown)", "EC50 / nM": 284}
{"molecule": "Cn1cc(C(=O)O)c2ncc(N3CC4C(/C=C/c5c(-c6c(Cl)cncc6Cl)noc5C5CC5)C4C3)cc21 (stereo not shown)", "EC50 / nM": 472}
{"molecule": "O=C(O)c1cc(OC(F)F)c2cc(N3CC4C(/C=C/c5c(-c6c(Cl)cncc6Cl)noc5C5CC5)C4C3)ccc2n1 (stereo not shown)", "EC50 / nM": 4}
{"molecule": "Clc1cccc(Cl)c1-c1noc(C2CC2)c1/C=C/C1C2CN(c3ccc(-c4nn[nH]n4)cc3)CC12 (stereo not shown)", "EC50 / nM": 41}
{"molecule": "O=C(O)c1ccc(N2CC3C(/C=C/c4c(-c5c(Cl)cccc5Cl)noc4C4CC4)C3C2)cc1 (stereo not shown)", "EC50 / nM": 40}
{"molecule": "COc1cc(-c2nc(N3CC4C(/C=C/c5c(-c6c(Cl)cncc6Cl)noc5C5CC5)C4C3)no2)cc(C(=O)O)n1 (stereo not shown)", "EC50 / nM": 297}

(a) O=C(O)c1cnc2cc(N3CCC(/C=C/c4c(-c5c(Cl)cccc5Cl)noc4C4CC4)CC3)ccc2c1
(b) COc1nc(C(=O)O)cc2ccc(N3CC4C(/C=C/c5c(-c6c(Cl)cncc6Cl)noc5C5CC5)C4C3)cc12 (stereo not shown)
Query: Form: Entry with minimum EC50 (choose one): a / b Refer to your chosen entry by its label in the reply.
Reply: a
(a: 31 nM, b: 126 nM)
